Taken from paper PMC8470274.

Target protein (sequence): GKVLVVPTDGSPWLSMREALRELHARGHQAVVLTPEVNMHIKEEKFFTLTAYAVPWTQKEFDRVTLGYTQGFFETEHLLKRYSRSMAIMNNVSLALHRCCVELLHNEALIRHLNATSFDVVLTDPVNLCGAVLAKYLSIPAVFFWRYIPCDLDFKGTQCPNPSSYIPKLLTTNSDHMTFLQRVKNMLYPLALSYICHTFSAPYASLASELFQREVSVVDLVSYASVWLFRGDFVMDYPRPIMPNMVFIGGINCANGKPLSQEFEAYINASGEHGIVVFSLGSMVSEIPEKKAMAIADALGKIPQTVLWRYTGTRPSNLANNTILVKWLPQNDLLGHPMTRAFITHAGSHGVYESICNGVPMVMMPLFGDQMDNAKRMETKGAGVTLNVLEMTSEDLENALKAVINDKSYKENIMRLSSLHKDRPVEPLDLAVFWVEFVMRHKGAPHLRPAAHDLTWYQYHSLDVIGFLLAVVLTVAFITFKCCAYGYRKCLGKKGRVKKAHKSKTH
pIC50: −log10 of the molar value.
MEASURE: pIC50

Oc1ccc(/C=C\c2cc(O)cc(O)c2)cc1 [B, 3,5,4′-Trihydroxystilbene] : < 4.30

We now examine a further compound.
So for Oc1ccc(/C=C/c2cc(O)cc(O)c2)cc1 [A, 3,5,4′-Trihydroxystilbene] , the logged pIC50 turned out to be < 4.30
